src = the Human Domainome abundance scans (Beltran et al. 2025)

B1: KAT8 regulatory NSL complex subunit 2, residues 28 to 91; numbered along this chain, Q9H9L4 (parent)
chain: CAFTHRPCSHPRLEGQEFCIKHILEDKNAPFKQCSYISTKNGKRCPNAAPKPEKKDGVSFCAEH

Variants of: B1
protocol text: abundance fitness (aPCA) (normalised: wild type 0, dead -1); higher = more abundant; growth selection in yeast, the domain comes from the species named
test conditions: Homo sapiens
Respond with yes for abundance fitness values of -0.2 and above, no for values below.

E14N; no

Entry K43F : is its abundance fitness no less than -0.2?
yes

Is it the case that E63T has abundance fitness reaching or exceeding -0.2?
yes

Please indicate if the recorded abundance fitness for G42T meets or exceeds -0.2.
yes

Decide: is the reported value of abundance fitness for S59T equal to or greater than -0.2?
yes

# bool: abundance fitness of D26W >= -0.2
no

Check the entry D26S : does abundance fitness equal or exceed -0.2?
yes
